# protocol notes: Luminescence measurements of Eu(III) chelates with the ligands
# Type: physicochemical
# condition parameters: Eu(III) complex of the ligand; 10 mM NH3-HCl buffer, pH 8.3
assay readout: excitation maximum λexc (nm)

| compound | value observed |
| --- | --- |
| O=C(O)CN(CC(=O)O)Cc1cc(-c2ccc3c(c2)Cc2ccccc2-3)cc(CN(CC(=O)O)CC(=O)O)n1 [Compound 11] | 323 |
| O=C(O)CN(CC(=O)O)Cc1cc(-c2ccc3c(c2)C(CC(=O)O)(CC(=O)O)c2ccccc2-3)cc(CN(CC(=O)O)CC(=O)O)n1 [Compound 12] | 328 |
| O=C(O)CN(CC(=O)O)Cc1cc(C#Cc2ccccc2)cc(CN(CC(=O)O)CC(=O)O)n1 [Ref ligand, reference compound] | 293 |
| O=C(O)CN(CC(=O)O)Cc1cc(C#Cc2ccc3c(c2)C(CC(=O)O)(CC(=O)O)c2ccccc2-3)cc(CN(CC(=O)O)CC(=O)O)n1 [Compound 14] | 342 |

----------
# protocol notes: Luminescence measurements of Eu(III) chelates with the ligands
# Format: physicochemical
# condition parameters: Eu(III) complex of the ligand; 10 mM NH3-HCl buffer, pH 8.3
assay readout: triplet stage T

| molecule | triplet stage T |
| --- | --- |
| O=C(O)CN(CC(=O)O)Cc1cc(C#Cc2ccccc2)cc(CN(CC(=O)O)CC(=O)O)n1 [Ref ligand, reference compound] | 21 600 cm^−1 |
| O=C(O)CN(CC(=O)O)Cc1cc(-c2ccc3c(c2)C(CC(=O)O)(CC(=O)O)c2ccccc2-3)cc(CN(CC(=O)O)CC(=O)O)n1 | 20 100 cm^−1 |
| O=C(O)CN(CC(=O)O)Cc1cc(C#Cc2ccc3c(c2)C(CC(=O)O)(CC(=O)O)c2ccccc2-3)cc(CN(CC(=O)O)CC(=O)O)n1 | 19 200 cm^−1 |

Pending molecule:
## Task # get_value(readout='triplet stage T', item= `O=C(O)CN(CC(=O)O)Cc1cc(-c2ccc3c(c2)Cc2ccccc2-3)cc(CN(CC(=O)O)CC(=O)O)n1` )
## Result 20 000 cm^−1

----------
# protocol notes: Luminescence measurements of Eu(III) chelates with the ligands
# Assay type: physicochemical
# condition parameters: Eu(III) complex of the ligand; 10 mM NH3-HCl buffer, pH 8.3
assay readout: quantum yield Φ

| molecule | value observed |
| --- | --- |
| O=C(O)CN(CC(=O)O)Cc1cc(-c2ccc3c(c2)Cc2ccccc2-3)cc(CN(CC(=O)O)CC(=O)O)n1 | 0.046 |
| O=C(O)CN(CC(=O)O)Cc1cc(-c2ccc3c(c2)C(CC(=O)O)(CC(=O)O)c2ccccc2-3)cc(CN(CC(=O)O)CC(=O)O)n1 | 0.10 |

(1) O=C(O)CN(CC(=O)O)Cc1cc(C#Cc2ccccc2)cc(CN(CC(=O)O)CC(=O)O)n1 [Ref ligand, reference compound]
(2) O=C(O)CN(CC(=O)O)Cc1cc(C#Cc2ccc3c(c2)C(CC(=O)O)(CC(=O)O)c2ccccc2-3)cc(CN(CC(=O)O)CC(=O)O)n1
## Task Of 1 and 2 , which shows the smaller quantum yield Φ value? Reply with the label of the item you choose.
## Result 1
